# Tested on: TGFβ signal
# Assay Info: TGFβ signal inhibitory activity, (SBE)4-Luc reporter in A549 cells (Test Examples 1A and 1B)
# Assay type: cell-based, human
# Run Parameters: Homo sapiens, A549; 3 µM; compounds of Reference Examples (Test Example 1B); read-out: TGFβ inhibition rate, %
// 0 (no) strictly below 50% in inhibition at 3 µM; 1 (yes) otherwise

Compound	Assigned Class
COc1cc2nccc(Oc3ccc(C)nc3-c3cccc(C#N)c3)c2cc1OC [Compound r234]	1 (yes)
CO/N=C(\C)c1cc(C)c(C)cc1Oc1ccnc2cc(OC)c(OC)cc12 [r196]	0 (no)
COc1cc2nccc(Oc3ccc4[nH]ccc4c3)c2cc1OC [r293]	1 (yes)
COc1cc2nccc(Oc3cc(C)c(C)nc3-c3ccc(O)nc3)c2cc1OC [Compound r430]	0 (no)
COc1cc2c(Oc3cc4ccccc4nc3C(C)=O)ccnc2cc1OCC(O)CO (stereo not drawn) [Compound r395]	1 (yes)
COc1cc2nccc(Oc3cc(Cl)c(C)cc3C(C)=O)c2cc1OC [Compound r184]	1 (yes)
CCOC(=O)/C=C/c1cc2nccc(Oc3cc4ccccc4nc3C)c2cc1OC [Compound r413]	0 (no)
COc1cc2nccc(Oc3ccc(C)nc3-c3c(Cl)cccc3Cl)c2cc1OC [Compound r253]	1 (yes)

---

# System: TGFβ signal
# Assay Info: TGFβ signal inhibitory activity, (SBE)4-Luc reporter in A549 cells (Test Examples 1A and 1B)
# Type: cell-based, human
# Run Parameters: Homo sapiens, A549; test compound 10 µM; Reference Examples, Table 1B; read-out: TGFβ inhibition rate, %

Compound	Measured Target	inhibition at 10 µM (%)
CCC(=O)c1cc(OC)ccc1Oc1ccnc2cc(OC)c(OC)cc12 [Compound r50]	TGFβ signal	100
COc1cc2c(Oc3ccc(C)cc3C(=O)c3ccccc3)ccnc2cc1OCC(O)CNCCO (centres unmarked) [Compound r152]	TGFβ signal	100
COc1cc2nccc(Oc3cc(C)c(C)cc3C(C)=O)c2cc1OC [Compound r38]	TGFβ signal	100
COc1ccc(Oc2ccnc3cc(OCCCl)c(OC)cc23)c(C(C)=O)c1 [r119]	TGFβ signal	97
CCC(O)c1cc(OC)ccc1Oc1ccnc2cc(OC)c(OC)cc12 (centres unmarked) [Compound r11]	TGFβ signal	66

---

# Tested on: TGFβ signal
# Assay Info: TGFβ signal inhibitory activity, (SBE)4-Luc reporter in A549 cells (Test Examples 1A and 1B)
# Type: cell-based, human
# Run Parameters: Homo sapiens, A549; test compound 10 µM; Reference Examples, Table 1B; read-out: TGFβ inhibition rate, %
// NOT MET strictly below 90% in inhibition at 10 µM; MET otherwise

Compound	Assigned Class
COc1cc2c(Oc3ccc(C)cc3C(=O)c3ccccc3)ccnc2cc1OCCN1CCOCC1	MET
COc1cc2c(Oc3ccc(C)cc3C(=O)c3ccccc3)ccnc2cc1OCCCl	MET
COc1cc2nccc(Oc3ccc(Br)cc3C(=O)Nc3ccc(Cl)cc3)c2cc1OC	NOT MET
COc1cc2nccc(Oc3cc(C)ccc3C(C)=O)c2cc1OC	MET
COc1cc2nccc(Oc3ccc4ccccc4c3)c2cc1OC	NOT MET
COc1cc2c(Oc3ccc(C)cc3C(=O)c3ccccc3)ccnc2cc1OCC(O)CN1CCC(N2CCCC2)CC1 (centres unmarked)	MET
COc1cc2nccc(Oc3cccc4ccccc34)c2cc1OC	NOT MET
C=C(C)C(=O)Oc1ccc(C(=O)c2ccccc2)c(Oc2ccnc3cc(OC)c(OC)cc23)c1	MET
CCOC(=O)c1ccc(Cl)cc1Oc1ccnc2cc(OC)c(OC)cc12	MET
COc1cc2c(Oc3ccc(C)cc3C(=O)c3ccccc3)ccnc2cc1OCCCN1CCN(C)CC1	MET

---

# System: TGFβ signal
# Assay Info: TGFβ signal inhibitory activity, (SBE)4-Luc reporter in A549 cells (Test Examples 1A and 1B)
# Type: cell-based, human
# Run Parameters: Homo sapiens, A549; 3 µM; compounds of Reference Examples (Test Example 1B); read-out: TGFβ inhibition rate, %
Catalogue of inhibition at 3 µM values

Molecule	Unit Label	inhibition at 3 µM
COc1cc2nccc(Oc3cc4cnccc4nc3C)c2cc1OC [r311]	%	53
CCCOC(=O)c1cc2ccccc2cc1Oc1ccnc2cc(OCCn3ccnc3)c(OC)cc12 [Compound r324]	%	86
COc1cc2nccc(Oc3ccc(C)nc3-c3ccc(C(C)C)cc3)c2cc1OC [Compound r243]	%	-7
COc1cc2nccc(Oc3ccc(C)nc3-c3cncnc3)c2cc1OC [Compound r265]	%	45
COc1cc2nccc(Oc3ccc(C)nc3-c3ccccc3)c2cc1OC [Compound r223]	%	99
COc1cc2nccc(Oc3cc4ccccc4nc3-c3ccncc3)c2cc1OC [r289]	%	80
COc1cc2nccc(Oc3ccc4ncccc4c3Cl)c2cc1OC [r298]	%	30
COc1cc2nccc(Oc3cc(C)c(SC)cc3C(C)=O)c2cc1OC [Compound r186]	%	76
COc1cc2c(Oc3cc(C)c(C)nc3-c3cccnc3)ccnc2cc1OCc1ccccc1 [Compound r344]	%	92
COc1cc2nccc(Oc3ccc4ncsc4c3I)c2cc1OC [r294]	%	53
COc1cc2c(Oc3cc4ccccc4nc3C)ccnc2cc1OCC(O)CO (stereo not shown) [Compound r384]	%	100
COc1cc2nccc(Oc3cc4ccccc4nc3C(=O)c3ccccc3)c2cc1OC [r279]	%	98
COc1cc2nccc(Oc3cc4cccnc4cc3C)c2cc1OC [r296]	%	86
COc1cc2nccc(Oc3cc4ccccc4nc3-c3ccccc3)c2cc1OC [Compound r283]	%	99
COc1cc2nccc(Oc3cc4ccncc4cc3-c3ccccn3)c2cc1OC [Compound r303]	%	96
COc1cc2nccc(Oc3cc4cccnc4nc3-c3ccccc3)c2cc1OC [Compound r422]	%	100
COc1cc2nccc(Oc3ccc(C)nc3C#C[Si](C)(C)C)c2cc1OC [r212]	%	94
COc1cc2nccc(Oc3cc4ccccc4nc3-c3cccc(CO)c3)c2cc1OC [Compound r284]	%	96
COc1cc2c(Oc3cc4cccnc4nc3C)ccnc2cc1OCC1CO1 (stereo not shown) [Compound r401]	%	24

---

# Test system: TGFβ signal
# Assay Info: TGFβ signal inhibitory activity, (SBE)4-Luc reporter in A549 cells (Test Examples 1A and 1B)
# Assay type: cell-based, human
# Run Parameters: Homo sapiens, A549; test compound 10 µM; Reference Examples, Table 1B; read-out: TGFβ inhibition rate, %

Molecule	Unit Label	inhibition at 10 µM
COc1cc(OC)c(C(C)=O)c(Oc2ccnc3cc(OC)c(OC)cc23)c1 [r40]	%	83
COc1cc2c(Oc3ccc(C)cc3C(=O)c3ccccc3)ccnc2cc1OCC(O)CN1CCC(CO)CC1 (stereo not drawn) [r154]	%	100
COc1cc2nccc(Oc3cc4ccccc4cc3C(=O)Oc3ccccc3)c2cc1OC [Compound r102]	%	95
COc1cc2c(Oc3ccc(C)cc3C(=O)c3ccccc3)ccnc2cc1OCCCNCCO [Compound r133]	%	100
CC=Cc1ccccc1Oc1ccnc2cc(OC)c(OC)cc12 [Compound r2]	%	88
COc1cc2nccc(Oc3ccc(C)nc3)c2cc1OC [Compound r115]	%	97
COc1cc2c(Oc3ccc(C)cc3C(=O)c3ccccc3)ccnc2cc1OCCCCN1CCC(N2CCCC2)CC1 [Compound r145]	%	100
CCOC(=O)/C(C)=C/c1cc(OC)ccc1Oc1ccnc2cc(OC)c(OC)cc12 [r8]	%	59
CCOC(=O)c1cc(F)ccc1Oc1ccnc2cc(OC)c(OC)cc12 [Compound r83]	%	81
COc1cc2c(Oc3ccc(C)cc3C(=O)c3ccccc3)ccnc2cc1OCC(O)CN1CCOCC1 (stereo not drawn) [Compound r159]	%	100
CCOC(=O)c1cc(Cl)ccc1Oc1ccnc2cc(OC)c(OC)cc12 [Compound r84]	%	100
COc1cc2nccc(Oc3ccc(C)cc3C(=O)CC(C)(C)C)c2cc1OC [Compound r55]	%	98
COc1ccc(C(=O)c2ccc(C)cc2)c(Oc2ccnc3cc(OC)c(OC)cc23)c1 [Compound r65]	%	100
CCCCC(O)c1cc(C)ccc1Oc1ccnc2cc(OC)c(OC)cc12 (stereo not drawn) [r10]	%	87
COc1cc2c(Oc3ccc(C)cc3C(=O)c3ccccc3)ccnc2cc1OCCCn1ccnc1 [r140]	%	100
COc1cc2nccc(Oc3ccc4c(c3)C(=O)c3ccccc3-4)c2cc1OC [Compound r19]	%	95
COc1cc2nccc(Oc3ccc(C)cc3Cl)c2cc1OC [Compound r3]	%	75
COc1cc2c(Oc3ccc(C)cc3C(=O)c3ccccc3)ccnc2cc1OCCCCN1CCN(C)CC1 [Compound r148]	%	100

---

Catalogue of inhibition at 3 µM values
# System: TGFβ signal
# Assay Info: TGFβ signal inhibitory activity, (SBE)4-Luc reporter in A549 cells (Test Examples 1A and 1B)
# Format: cell-based, human
# Run Parameters: Homo sapiens, A549; test compound 3 µM; TGFβ-1 2 ng/ml, 4 hr; Table 1A; read-out: TGFβ inhibition rate, %

Structure As Smiles	inhibition at 3 µM
Cc1cc(Oc2ccnc3ccc(-c4ccccc4N)cc23)c(-c2ccccn2)nc1C	87%
CCc1ccc(Oc2ccnc3ccc(OC(C)=O)cc23)c(-c2ccccn2)n1	100%
Clc1ccc2nccc(Oc3cc4cccnc4nc3-c3ccccc3)c2c1Cl	75%
COc1cc2nccc(Oc3cc4ccncc4nc3C)c2cc1OC	52%
CCc1ccc(Oc2ccnc3ccc(OCCN)cc23)c(-c2ncccn2)n1	84%
COc1ccc2ncnc(Oc3cc(C)c(C)nc3-c3ccccn3)c2c1	83%
Cc1cc(Oc2ccnc3ccsc23)c(-c2ccccn2)nc1C	100%
Cc1ccc(Oc2ccnc3ccc(OCCCCl)cc23)c(-c2ncccn2)n1	87%
COc1cc2nccc(Oc3cc(C)c(C)nc3-c3ccccn3)c2cc1C(N)=O	99%
CCc1ccc(Oc2ccnc3ccc(OCCOC(=O)C(C)(C)C)cc23)c(-c2ncccn2)n1	93%
COc1ccc2c(Oc3cc4cccnc4nc3-c3ccccc3)ccnc2c1	99%
c1ccc(-c2nc3ncccc3cc2Oc2ncnc3sccc23)cc1	44%
COc1cc2nccc(Oc3cc(C)c(C)nc3-c3ccccn3)c2cc1O	100%
Cc1sc2ncnc(Oc3cc4cccnc4nc3-c3ccccc3)c2c1C	75%
COc1cc2nccc(Oc3cc4c(nc3-c3ccccc3)NCCC4)c2cc1C(=O)NCc1ccccc1	76%
Cc1cc(Oc2ncnc3sc(C)c(C)c23)c(-c2ccccn2)nc1C	95%
Cc1ccc(Oc2ccnc3ccc(OCCO)cc23)c(-c2ncccn2)n1	86%
COc1cc2nccc(Oc3ccc(C)nc3-c3ncccn3)c2cc1OC	100%
